- measurement-target: HIV integrase (Human immunodeficiency virus type 1 group M subtype B, UniProt P04585)
- assay: 3'processing/strand transfer combined assay
- Assay type: biochemical
- conditions-used: Table 8 cells that name no assay; taken as the 3'processing/strand transfer combined assay; read-out: IC50
outcome-measure: IC50

# compound, IC50
records = [
    ("CCOc1cnc(-c2cc(-c3ccc(N4CCOCC4)cc3)nc(OCc3csc(C(=O)O)c3)c2C#N)o1 [compound 15044]", "10 to 50 µM"),
    ("N#Cc1cc(C(=O)O)sc1COc1nc(-c2ccc(N3CCOCC3)cc2)cc(-c2ccoc2)c1C#N [compound 14905]", "< 10 µM"),
    ("Cc1cc(-c2cc(-c3ccc(N4CCOCC4)cc3)nc(OCc3ccc(C(=O)O)s3)c2C#N)on1 [compound 14959]", "10 to 50 µM"),
]

Attention now shifts to the item below.
Prompt: # returns recorded IC50 (system: HIV integrase (Human immunodeficiency virus type 1 group M subtype B, UniProt P04585)) for Cc1cc(-c2cc(-c3ccc(N4CCOCC4)cc3)nc(OCc3csc(C(=O)O)c3)c2C#N)on1 [compound 15045]
Completion: < 10 µM

Cited source: patent US20100009973A1
